Reported Kd values for a set of binders
Subject of test: T1, human HIDE1 (human, UniProt A8MVS5 20-230)
T1 construct: Endogenous on U937, HL-60, THP-1 cells, blood monocytes, AML blasts and dendritic cells; also called C19orf38; hHIDE1
T1 sequence: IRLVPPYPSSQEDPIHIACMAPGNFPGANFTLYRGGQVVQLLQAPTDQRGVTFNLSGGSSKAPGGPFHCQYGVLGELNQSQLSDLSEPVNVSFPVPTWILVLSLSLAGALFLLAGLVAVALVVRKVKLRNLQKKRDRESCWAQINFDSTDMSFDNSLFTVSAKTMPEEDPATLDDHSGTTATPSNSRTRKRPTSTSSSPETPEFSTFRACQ
Protocol details: FACS titration on 293T-huHIDE1 cells, human IgG4 (preliminary FACS KD)
Test readout: Kd (nM)

[[record]]
binder = "CPA.12.006 human IgG4 (antibody, V domains shown, also called CPA.12.006-H4) VH: EVQLVESGGGVVQPGRSLRLSCAASGFTFSSFAMHWVRQAPGKGPEWLGIILYEGGHVVYADSVRGRLTISRDNSKNTLYLQMDSLRDEDTAVYYCAKGFYHAFDVWGQGTMVTVSS VL: QAVLTQPASLSASPGASASLTCTLRSGINVGTYRIYWYQQKPGSPPQYLLRYKSDSDKQQGSGVPSRFSGSKDASANAGILLISGLQSEDEADYYCMIWHSSAWVFGGGTQLTVLG"
value_measured = 2.5

[[record]]
binder = "CPA.12.009 human IgG4 (antibody, V domains shown, also called CPA.12.009-H4) VH: QMQLVQSGAEVKKPGASVKVSCKASGYTFTTHAFSWVRQAPGLGLEWMGWISTYNGNTKYEQKFQGRVTLTTDSSTNTAYMELRSLRSDDTAVYYCVRDSRAFDVWGQGTMVTVSS VL: DIQLTQSPSFLSASVGDRVTITCRASQGINSYLAWYQQKPGAAPKLLIYAASTLQSGVPSRFSGSGSGTEFTLTISSLQPEDFATYYCQQLNTYPLIFGQGTRLEIKR"
value_measured = 1.7

[[record]]
binder = "CPA.12.008 human IgG4 (antibody, V domains shown, also called CPA.12.008-H4) VH: QVQLQESGPGLVTPSETLSLTCTVSGGSISSVSYYWGWVRQPPGKGLEWIGSIYYSGTTAHNPSLKSRVTMAVDTSKNQFSLSLSSVTAADTAVYFCARGWRYYEDYYFDHWGQGTLVTVSS VL: AIRMTQSPSSLSASVGDRVTITCQASQDISNYLNWYQQKPGKAPKSLIYAASSLQSGVPSKFSGSGSGTDFTLTISSLQPEDFATYYCQQYYSYPLTFGGGTKVEIKR"
value_measured = 1.3

[[record]]
binder = "CPA.12.013 human IgG4 (antibody, V domains shown, also called CPA.12.013-H4) VH: EVQLVETGGGLIQPGRSLRLSCVASDFRFSNHAMHWVRQAPGKELEWVAVISSDGSNRQYAYSVKGRFTISRDNSKNTLYLEMNILGPEDTAVYFCVRSHLGPEWYYGMDVWGQGTTVTVSS VL: DIQMTQSPSSLSASVGDRVTITCQASHDIRKFLNWYQQHPGKAPKLLIYDAAYSEIGVPSRFSGGGSGTDFTFTINNLQPDDFATYYCQQYESLPFTFGPGTKVDIKR"
value_measured = 2.6

[[record]]
binder = "CPA.12.015 human IgG4 (antibody, V domains shown, also called CPA.12.015-H4) VH: QVQLQESGPGLVKPSETLSLTCTVSGGSISSSSYYWGWIRQPPGKGLEWIGSIYYSGSTHYNPSLKSRVTISVDTSKNQFSLKLSSVTAADTAVYYCARVYYGSGTGGAFDIWGQGTMVTVSS VL: QSVLTQPPSVSGAPGQRVTISCTGSSSNIGAAYDVHWYQQLPGTAPKLLIYGDTIRPSGVPDRFSGSKSGTSASLAITGLQAEDEADYYCQSYDSSLSGSWVFGGGTQLTVLG"
value_measured = 11

[[record]]
binder = "CPA.12.007 human IgG4 (antibody, V domains shown, also called CPA.12.007-H4) VH: EVQLVESGGGVVQPGESLRLSCAASGFTFSSYGFHWVRQSPGEGLEWLAVISYDGTSKSYADSVKGRFTVSRDNSKETLYLQLSSLRREDTALYYCARDTWGYYYGMDVWGQGTTVTVSS VL: DIQMTQSPSFLSGSVGDRVSISCRASQDIRSHLAWYQRKPGEAPKLLIYTASSLQGGVPLRFSGSGSGTEFTLTISSLQPEDSATYYCQHLHLYPLTFGGGTKLEIKR"
value_measured = 14

[[record]]
binder = "CPA.12.002 human IgG4 (antibody, V domains shown, also called CPA.12.002-H4) VH: EVQLVESGGGLVQPGRSLRLSCAASGFTFSSYAMHWVRQVPGKGLEWVAVISYDGSNKYYADSVKGRFTISRDNSKNTLYLQMNSLRAEDTAVYYCAKPMYSSGWYPLGYWGQGTLVTVSS VL: DIVMTQTPLSLPVTPGQPASISCRSSQSPLDTDGNTYLDWYLQRPGQSPQLLIYTLSNRASGVPDRFSGSGSGTDFTLKISRVEAEDVGIYYCMQRIQYPLTFGPGTRLEIKR"
value_measured = 6.4

[[record]]
binder = "CPA.12.005 human IgG4 (antibody, V domains shown, also called CPA.12.005-H4) VH: QVQLVESGGGVVQPGRSLRVSCAVSGFTFSSYGMHWVRQAPGGGLEWVAVMSYEGSFRHYADSVKGRFTISRDNSKNTLFLQMDSLRAEDTAVYYCARDRPAGYTSGWGILDYWGQGTLVTVSS VL: EIVMTQSPATLSLSPGERATLSCRASQSVSSYLAWYQQKPGQAPRLLIYDASNRATGIPARFSGSGSGTDFTLTISSLEPEDFAVYYCQQRSNWPLTFGGGTKVDIKR"
value_measured = 4

